target: Adenosine receptor A2a (Homo sapiens); assay: biochemical
pKi: −log10 of the molar value.
readoutKind: pKi

{"smilesInput": "Nc1nc2c(cnn2CCCc2ccc3c(c2)OC(CO)(CO)O3)c2nc(-c3ccco3)nn12", "measuredOn": "Adenosine receptor A2a (Homo sapiens)", "readoutKind": "pKi", "result": 9.72}

###

target: Adenosine receptor A2a (Homo sapiens, UniProt P29274); experiment: Displacement of [3H]-SCH- 58261 binding at human Adenosine A2A receptor expressed in HEK293 cells; ranges from 0.69-0.92; format: cell-based
Sequence (P29274 whole entry): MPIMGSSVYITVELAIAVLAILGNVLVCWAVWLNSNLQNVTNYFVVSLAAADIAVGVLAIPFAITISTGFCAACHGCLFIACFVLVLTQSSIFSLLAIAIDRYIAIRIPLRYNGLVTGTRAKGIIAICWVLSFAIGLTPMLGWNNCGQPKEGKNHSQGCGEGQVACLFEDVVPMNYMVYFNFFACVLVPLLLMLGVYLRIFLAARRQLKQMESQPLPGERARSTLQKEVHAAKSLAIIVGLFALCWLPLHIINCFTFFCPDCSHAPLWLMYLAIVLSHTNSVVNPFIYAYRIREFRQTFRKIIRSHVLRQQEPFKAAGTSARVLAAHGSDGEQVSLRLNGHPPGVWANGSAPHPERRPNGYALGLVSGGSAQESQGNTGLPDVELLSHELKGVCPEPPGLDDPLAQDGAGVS

{"smilesInput": "Nc1nc2c(cnn2CCc2ccc(S(=O)(=O)N(CCO)CCO)cc2)c2nc(-c3ccco3)nn12", "Ki, nM": 0.8}

Just for reference, ChEMBL document CHEMBL1135389 is where these values come from.
